- Tested on: OVCAR-8 ovarian
- assay_summary: NCI tumour cell line growth inhibition, 48 h
TGI values for the compounds below.
Numbers only here, please. The scale is µM.

Some solved entries appear below for comparison.
[
  {
    "compound": "Cc1cc(C(C)(C)C)cc(CNC2CCCCC2)c1O",
    "unit_text": "µM",
    "recorded_measurement": 31
  },
  {
    "compound": "c1ccc2cc(C[n+]3ccn(CCCCCCCCCCn4cc[n+](Cc5ccc6ccccc6c5)c4)c3)ccc2c1",
    "unit_text": "µM",
    "recorded_measurement": 13.1
  },
  {
    "compound": "CCN(CC)C1CCC(Nc2c(C(C)=O)cnc3ccc(-c4ccc(O)c(Cl)c4)cc23)CC1 (stereo not given)",
    "unit_text": "µM",
    "recorded_measurement": 14
  },
  {
    "compound": "CCN(CC)CCNc1ccc2nnn3c4ccc(O)cc4c(=O)c1c23",
    "unit_text": "µM",
    "recorded_measurement": 17.5
  },
  {
    "compound": "NCCNCc1c2ccccc2c(CNCCN)c2ccccc12",
    "unit_text": "µM",
    "recorded_measurement": 60.3
  },
  {
    "compound": "O=C1C=C(OCCCCl)C(=O)c2c(O)ccc(O)c21",
    "unit_text": "µM",
    "recorded_measurement": 7.59
  },
  {
    "compound": "COc1cc(/C=C2\\C[C@H]3[C@@H]4CC=C5C[C@@H](O)CC[C@]5(C)[C@H]4CC[C@]3(C)[C@H]2O)ccc1OCCCn1ccnc1",
    "unit_text": "µM",
    "recorded_measurement": 16.1
  },
  {
    "compound": "C/C(=N\\Nc1nc2cccnc2s1)c1ccccn1",
    "unit_text": "µM",
    "recorded_measurement": 0.0147
  },
  {
    "compound": "C=C(CN1CC2C[C@](C(=O)OC)(c3cc4ccccc4[nH]3)C1C(OC)C2OC)S(=O)(=O)c1ccccc1 (stereo not given in full)",
    "unit_text": "µM",
    "recorded_measurement": 12.6
  },
  {
    "compound": "CN1CCN(Cc2ccc(NC(=O)c3cccc(C#Cc4cnc(N)c5ncccc45)c3F)cc2C(F)(F)F)CC1",
    "unit_text": "µM",
    "recorded_measurement": 1.78
  }
]

The reported value for `COc1ccc(Nc2cc(C)nc(NCCCNc3ccnc4cc(Cl)ccc34)n2)cc1` in terms of TGI is 6.03

The reported value for `O=c1oc2ccc(Br)cc2c(=O)n1-c1ccc(I)cc1F` in terms of TGI is 5.98

The reported value for `COc1cc2c(cc1Nc1nc(Nc3cccc(F)c3C(N)=O)c3cc[nH]c3n1)N(C(=O)CN1CCN(C(C)C)CC1)CC2` in terms of TGI is 10.2

The reported value for `O=C(c1ccco1)c1c(C(F)(F)F)n([O-])c2ccc(Cl)cc2[n+]1=O` in terms of TGI is 2.1

The reported value for `CN1C/C=C/CCOc2cccc(c2)-c2ccnc(n2)Nc2cccc(c2)C1` in terms of TGI is 1.26
